- experimental target: T1, HLA-A2 / homologous peptide DOLPP1 complex on T2 cells (human)
- T1 construct: whole, on cells; also called T2 cells supplemented with homologous peptide DOLPP1
- method description: flow cytometry on peptide-pulsed T2 cells, scFv 100 nM;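 also: scFv binding read as gMFI and normalized to the level of HLA/peptide complex displayed on T2 cells, with homologous 9-mer peptides used to probe specificity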
outcome measure: standardized gMFI
The reply should be a number, written without any unit.

binder	standardized gMFI
NYA-2023 (scFv) scFv: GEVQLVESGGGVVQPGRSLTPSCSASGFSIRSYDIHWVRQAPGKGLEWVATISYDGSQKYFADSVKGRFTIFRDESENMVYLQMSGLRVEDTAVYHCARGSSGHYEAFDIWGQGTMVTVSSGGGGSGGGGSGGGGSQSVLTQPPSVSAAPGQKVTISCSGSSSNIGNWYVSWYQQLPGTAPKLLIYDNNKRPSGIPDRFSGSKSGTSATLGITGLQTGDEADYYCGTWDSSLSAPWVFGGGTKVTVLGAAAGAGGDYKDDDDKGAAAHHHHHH	0.42

Please find the next binder below.
Value of standardized gMFI reported for the binder NYA-2045 (scFv, also called NYA-2045 tag adduct) scFv: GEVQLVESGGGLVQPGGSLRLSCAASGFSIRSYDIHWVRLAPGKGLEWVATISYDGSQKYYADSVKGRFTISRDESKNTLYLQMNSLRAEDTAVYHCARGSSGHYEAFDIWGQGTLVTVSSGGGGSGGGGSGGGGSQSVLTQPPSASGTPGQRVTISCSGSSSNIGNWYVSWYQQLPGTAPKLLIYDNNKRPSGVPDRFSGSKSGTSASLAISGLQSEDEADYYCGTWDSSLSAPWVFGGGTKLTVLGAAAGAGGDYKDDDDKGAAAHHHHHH is 0.43
